- measured_target: GRK2 (Homo sapiens)
- assay: hGRK2 LANCE Ultra In Vitro Assay
- Type: biochemical
recorded_metric: IC50 (nM)
Expressed in nM, but write only the number.

Value of measured IC50 for the entry COc1cccc(CN2C(=O)c3cc(-c4cn[nH]c4)ccc3C23CCCC3C(=O)O)c1 (centres unmarked) [Compound 110] : 307

* * *

- measured_target: UniProt P25098
- assay: GRK2 Transcreener Assay
- Assay type: biochemical
- experimental_conditions: Biological Example 2 GRK2 Transcreener IC50 (μM), 10 nM GRK2; 10 μM ATP; 150 μM peptide substrate; multiple measurements listed individually
# Lookup of reported IC50 keyed by entry

Here are 4 compounds together with their reported answers.
>  <compound>
COc1cccc(CN2C(=O)c3cc(-c4ccnc(N)n4)ccc3C2(C)C)c1 [Compound 17]

>  <IC50>
0.048 µM

$$$$
>  <compound>
COc1cccc(CN2C(=O)c3cc(-c4cn[nH]c4)ccc3C23CC(O)C(O)C3)c1 (centres unmarked) [Compound 8]

>  <IC50>
0.009 µM

$$$$
>  <compound>
CC(C)NC(=O)c1cccc(CN2Cc3ccc(-c4cn[nH]c4)cc3C2=O)c1 [Compound 19]

>  <IC50>
< 0.005 µM

$$$$
>  <compound>
CS(=O)(=O)Nc1cccc(CN2Cc3ccc(-c4cn[nH]c4)cc3C2=O)c1 [Compound 9]

>  <IC50>
0.291 µM

$$$$

compound CCOc1cccc(CN2Cc3ccc(-c4ccnc(N)n4)cc3C2=O)c1 [Compound 11] , IC50 observed: 0.383 µM

* * *

- measured_target: GRK2 (Homo sapiens, UniProt P25098)
- Sequence (P25098 whole entry): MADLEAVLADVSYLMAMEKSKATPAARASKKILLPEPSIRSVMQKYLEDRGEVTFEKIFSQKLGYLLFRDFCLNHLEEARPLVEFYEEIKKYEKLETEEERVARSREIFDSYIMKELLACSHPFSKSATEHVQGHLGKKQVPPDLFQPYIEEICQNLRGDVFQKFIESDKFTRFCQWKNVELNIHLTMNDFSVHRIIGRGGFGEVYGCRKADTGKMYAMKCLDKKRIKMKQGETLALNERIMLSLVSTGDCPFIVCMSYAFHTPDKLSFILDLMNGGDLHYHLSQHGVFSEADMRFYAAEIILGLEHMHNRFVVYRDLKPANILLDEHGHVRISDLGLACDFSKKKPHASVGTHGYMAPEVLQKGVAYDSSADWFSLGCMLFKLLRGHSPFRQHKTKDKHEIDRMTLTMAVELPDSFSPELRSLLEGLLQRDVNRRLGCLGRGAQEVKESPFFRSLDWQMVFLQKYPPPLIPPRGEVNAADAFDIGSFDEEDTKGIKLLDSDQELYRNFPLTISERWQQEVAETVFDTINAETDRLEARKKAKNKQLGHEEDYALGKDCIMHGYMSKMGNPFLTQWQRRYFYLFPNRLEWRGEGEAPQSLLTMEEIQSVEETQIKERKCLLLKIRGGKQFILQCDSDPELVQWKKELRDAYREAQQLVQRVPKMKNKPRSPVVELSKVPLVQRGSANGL
- assay: hGRK2 LANCE Ultra In Vitro Assay
- Format: biochemical
- experimental_conditions: Biological Example 1 GRK2 Lancer IC50 (μM), 10 nM GRK2; 30 or 600 μM ATP (not stated which); multiple measurements listed individually
Property: IC50; scope: individual compounds
Kindly provide the numeric value in µM only, without the unit symbol.

>  <compound>
COc1cccc(C(CC(=O)O)N2Cc3ccc(-c4cn[nH]c4)cc3C2=O)c1 (centres unmarked) [Compound 100]

>  <IC50 (µM)>
6.24

$$$$

Note to self: IC50 recorded for COc1cccc([C@@H](C)N2Cc3c(cc(-c4cn[nH]c4)cc3-c3ccncc3)C2=O)c1 [Compound 121] was 0.01

* * *

IC50 values by entry
- measured_target: GRK2 (Homo sapiens)
- assay: hGRK2 LANCE Ultra In Vitro Assay
- Format: biochemical
- experimental_conditions: Biological Example 1 GRK2 Lancer IC50 (μM), 10 nM GRK2; 30 or 600 μM ATP (not stated which); multiple measurements listed individually
Note: unit µM is implicit; provide only the numeric part.

Recorded IC50, per entry:
>  <compound>
COc1cccc(C(CO)N2Cc3ccc(-c4cn[nH]c4)cc3C2=O)c1 (racemic) [Compound 38]

>  <readout_units>
µM

>  <measured_value>
0.006

$$$$
>  <compound>
COc1cccc([C@@H](C)N2Cc3c(cc(-c4cn[nH]c4)cc3-c3cccnc3N)C2=O)c1

>  <readout_units>
µM

>  <measured_value>
0.022

$$$$

Entry Cc1ccc(CN2Cc3ccc(-c4cn[nH]c4)cc3C2=O)s1 , IC50 reported as 0.324

Form field IC50, entry COc1cccc(CN2C(=O)c3cc(-c4cn[nH]c4)ccc3C23CCc2c(O)cccc23)c1 (stereo not drawn) : 0.144

* * *

- measured_target: GRK2 (Homo sapiens, UniProt P25098)
- assay: GRK2 Transcreener Assay
- Assay type: biochemical
- experimental_conditions: Biological Example 2 GRK2 Transcreener IC50 (μM), 10 nM GRK2; 10 μM ATP; 150 μM peptide substrate; multiple measurements listed individually
The compounds listed here are annotated with their IC50.

Worked cases, answers included:
>  <compound>
COc1cccc(CN2C(=O)c3cc(-c4cn[nH]c4)ccc3C23CCNCC3)c1

>  <IC50>
< 0.005 µM

$$$$
>  <compound>
COc1cccc(CN2C(=O)c3cc(-c4cn[nH]c4)ccc3C2CC#N)c1 (centres unmarked)

>  <IC50>
< 0.005 µM

$$$$
>  <compound>
COc1cccc([C@@H](C)N2Cc3ccc(-c4cn[nH]c4)cc3C2=O)c1

>  <IC50>
< 0.005 µM

$$$$
>  <compound>
COC(=O)c1cccc([C@@H](C)N2Cc3ccc(-c4cn[nH]c4)cc3C2=O)c1

>  <IC50>
> 50 µM

$$$$

Consider CNC(=O)c1ccc(-c2ccc3c(c2)C(=O)N(Cc2cccc(OC)c2)C3)cn1 . Its measured IC50 is > 50 µM

* * *

- measured_target: GRK2 (Homo sapiens, UniProt P25098)
- assay: hGRK2 LANCE Ultra In Vitro Assay
- Format: biochemical
- experimental_conditions: Biological Example 1 GRK2 Lancer IC50 (μM), 10 nM GRK2; 30 or 600 μM ATP (not stated which); multiple measurements listed individually
Please map values of IC50 to classes as shown: class 1 (below 0.01 µM), class 2 (0.01 µM to below 0.05 µM), class 3 (0.05 µM or more)

Consider the worked cases shown below.
>  <compound>
COc1cccc([C@@H](C)N2C(=O)c3cc(-c4cn[nH]c4)ccc3C2CCO)c1 (stereo partly drawn)

>  <measured_target>
GRK2 (Homo sapiens, UniProt P25098)

>  <category>
class 1

$$$$
>  <compound>
COc1cccc(CN2C(=O)c3cc(-c4cn[nH]c4)ccc3C23CCCCC3)c1

>  <measured_target>
GRK2 (Homo sapiens, UniProt P25098)

>  <category>
class 2

$$$$
>  <compound>
O=C1c2cc(-c3cn[nH]c3)ccc2CN1Cc1cccc(OC2COC2)c1

>  <measured_target>
GRK2 (Homo sapiens, UniProt P25098)

>  <category>
class 3

$$$$
>  <compound>
COc1cccc(-c2cc(-c3cn[nH]c3)cc3c2CN([C@H](C)c2cccc(OC)c2)C3=O)c1

>  <measured_target>
GRK2 (Homo sapiens, UniProt P25098)

>  <category>
class 3

$$$$
>  <compound>
COc1cccc(CN2C(=O)c3cc(-c4ccnc(N)n4)ccc3C2CC#N)c1 (stereo not drawn)

>  <measured_target>
GRK2 (Homo sapiens, UniProt P25098)

>  <category>
class 3

$$$$
>  <compound>
COc1cccc([C@@H](C)N2Cc3c(cc(-c4cn[nH]c4)cc3-c3cccc(O)c3)C2=O)c1

>  <measured_target>
GRK2 (Homo sapiens, UniProt P25098)

>  <category>
class 2

$$$$
>  <compound>
COc1cccc(C(COCC(=O)O)N2Cc3ccc(-c4cn[nH]c4)cc3C2=O)c1 (stereo not drawn)

>  <measured_target>
GRK2 (Homo sapiens, UniProt P25098)

>  <category>
class 2

$$$$
>  <compound>
CCOc1cccc(CN2C(=O)c3cc(-c4c[nH]nn4)ccc3C2(C)C)c1

>  <measured_target>
GRK2 (Homo sapiens, UniProt P25098)

>  <category>
class 3

$$$$

Req: Please let me know in which category the item COc1cccc([C@@H](C)N2Cc3c(cc(-c4cn[nH]c4)cc3-c3cccnc3)C2=O)c1 belongs.
Resp: class 1

Req: // bin(item) where item = COc1cccc([C@@H](C)N2Cc3c(cc(-c4cn[nH]c4)cc3-c3ccc(OC)nc3)C2=O)c1
Resp: class 2

Req: # bin label for COc1cccc(C(CO)N2Cc3c(cc(-c4cn[nH]c4)cc3-c3ccc(O)cc3)C2=O)c1 (stereo not drawn)
Resp: class 2

Req: GET /class?item= CCOc1cccc([C@H](C(=O)OC)N2Cc3ccc(-c4ccncc4)cc3C2=O)c1
Resp: class 3

Req: Form field 'band' for COc1cccc(C(C(=O)N(C)C)N2Cc3ccc(-c4cn[nH]c4)cc3C2=O)c1 (stereo not drawn)
Resp: class 3

Req: Assign a bin to CC(C)NC(=O)c1cccc(CN2Cc3cc(F)c(-c4cn[nH]c4)cc3C2=O)c1
Resp: class 1

Req: Could you tell me which band COc1cccc(C(CO)N2Cc3c(cc(-c4cn[nH]c4)cc3-c3cncc(F)c3)C2=O)c1 (stereo not drawn) belongs to?
Resp: class 2

Req: Where would CCOc1cccc([C@@H](C)N2Cc3ccc(-c4cn[nH]c4)cc3C2=O)c1 land among the classes by reported IC50?
Resp: class 1

Req: Lab note: sort CC(C)NC(=O)c1cccc(CN2Cc3ccc(-c4cn[nH]c4)cc3C2=O)c1 into the matching IC50 band.
Resp: class 1

Req: Textbook exercise: identify the category of the compound given here, COc1cccc(C(CO)N2Cc3ccc(-c4cn[nH]c4)cc3C2=O)c1 (single isomer, unassigned) [Compound 113] , according to its measured value.
Resp: class 1

Req: Returns: class label. Input: O=C1c2cc(-c3cn[nH]c3)ccc2CN1Cc1cccc(Oc2ccccc2)c1
Resp: class 2

Req: Just checking, what class would you give COc1cccc(CN2Cc3ccc(-c4ccncc4)cc3C2=O)c1 here?
Resp: class 2

Origin of the recorded values: patent US20220009906A1
